# assayedTarget: T1, his-tagged murine TIGIT (Acro Biosystems #TIT-M52E6) (murine, UniProt P86176 29-148, limits assumed)
# T1 construct: Bought protein; also called mouse his-tagged TIGIT; not shown: his tag
# T1 sequence (looked up): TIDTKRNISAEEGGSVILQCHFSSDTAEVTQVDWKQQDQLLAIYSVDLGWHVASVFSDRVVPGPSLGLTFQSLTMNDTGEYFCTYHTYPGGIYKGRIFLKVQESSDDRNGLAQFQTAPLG
# measurementNotes: SPR (Carterra LSA), scFv-Fc captured, His-TIGIT analyte
pKd: −log10 of the molar value.
measuredMetric: pKd

# binder, resultNumber
measured = [
    ("43586p1.2.E6 (scFv, V domains shown) VH: EVQLLESGGGLVQPGGSLRLSCAASGFTVSDHYMSWVRQAPGKGLEWVSTTSSTSWKNYTYYADSVKGRFSISRDNSENTLYLQMNGLRAEDTAVYYCAKGSYGMDVWGQGTTVTVSS VL: QSVLTQPPSASGTPGQRVTISCSGSNFNIGTKYLYWYQQLPGTAPKLLIYLDSQRPSGVPDRFSTSKSGTSASLAISGLQSEDEADYYCALWDDHLHGWVFGGGTKLTVL", 8.51),
    ("43586p2.D01 (scFv, V domains shown) VH: EVQLLESGGGLVQPGGSLRLSCAASGFTVSSNWMSWVRQAPGKGLEWVSTTSSSSWNNYTYYADSVKGRFTISRDNSKNTLYLQMNSLRAEDTAVYYCAKGSYGMDVWGQGTTVTVSS VL: QSVLTQPPSASGTPGQRVTISCSGSNSNIGAKYLYWYQQLPGTAPKLLIYLNDQRPSGVPDRFSGSKSGTSASLAISGLQSEDEADYYCAFWDDHLKGWVFGGGTKLTVL", 9.30),
    ("43586p1.2.G4 (scFv, V domains shown) VH: EVQLLESGGGLVQPGGSLRLSCAASGFTFDDYVMSWVRQAPGKGLEWVSLINWNGDKTYYADSVKGRFTISRDNSKNTLYLQMNSLRAEDTAVYYCARHWIVFQYGLDVWGQGTTVTVSS VL: QSVLTQPLSASGTPGQRVTISCSGVSSNIEIKYVSWYQQLPGTAPKLLIYNSHQRPSGVPDRFSGSKSGTSASLAISGLQSEDEADYYCTSWDDRLKSWVFGGGTKLTVL", 8.16),
    ("43586p2.F11 (scFv, V domains shown) VH: EVQLLELGGSLVQPGGSLRLSCAASGFTFDDYVMSWVRQAPGKGLEWVSLINWNGDKTYYADSVKGRFTISRDNSKNTLYLQMNSLRAEDTAVYYCARHWIVFQYGLDVWGQGTTVTVSS VL: QSVLTQPLSASGTPGQKVTISCSGVSSNIEIKYVSWYQQLPGTAPKLLIYNSHQRPSGVPDRFSGSKSGTSASLAISGLQSEDEADYYCTSWDDRLKSWVFGGGTKLTVL", 8.21),
    ("43586p2.D05 (scFv, V domains shown) VH: EVQLLESGGGLVQPGGSLRLSCAASGFTFDDYVMSWVRQAPGKGLEWVSLINWNGDKTYYADSVKGRFTISRDNSKNTLYLQMNSLRAEDTAVYYCARHWIVFQYGLDIWGQGTTVTVSS VL: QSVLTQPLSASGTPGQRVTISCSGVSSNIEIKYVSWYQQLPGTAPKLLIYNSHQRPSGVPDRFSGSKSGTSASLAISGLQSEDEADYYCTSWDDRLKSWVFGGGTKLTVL", 8.26),
]
